All values here come from ChEMBL document CHEMBL4477223.

# ASSAYED_SYSTEM: Amine oxidase [flavin-containing] A (Homo sapiens, UniProt P21397)
# ASSAY_INFO: Inhibition of human recombinant MAO-A preincubated for 30 mins followed by p-tyramine hydrochloride addition measured after 30 mins by Amplex red fluorescence based spectrophotometry
pIC50: −log10 of the molar value.
MEASUREMENT_KIND: pIC50

Known pIC50 results, listed for orientation:
| COMPOUND | MEASUREMENT_KIND | ASSAY_RESULT |
| --- | --- | --- |
| C#CCN(C)CCc1ccc(Cc2cn(C)nn2)cc1 | pIC50 | 4.56 |
| C#CCN(C)CCc1cn(Cc2ccccc2)nn1 | pIC50 | 4.01 |
| C#CCN(C)CCc1cn(CCc2ccccc2)nn1 | pIC50 | 4.25 |
| C#CCN(C)CCc1cn(CC)nn1 | pIC50 | 3.26 |
| C#CCN(C)CCc1nnn(-c2ccccc2)c1CC | pIC50 | 5.12 |

(A) C#CCN(C)CCc1nnn(-c2ccccc2)c1CCCC
(B) C#CCN(C)CCc1nnn(C(C)c2ccccc2)c1C (stereo unspecified)
Asked: Compare the recorded pIC50 of A and B ; state which is larger. Give the label under which the chosen entry appears.
Given back: A

(I) C#CCN(C)Cc1cn(CC)nn1
(II) C#CCN(C)Cc1ccc(Cc2cn(C)nn2)cc1
(III) C#CCN(C)CCc1nnn(-c2ccccc2)c1CCC
(IV) C#CCN(C)Cc1cccc(Cc2cn(C)nn2)c1
(V) C#CCN(C)Cc1nnn(CC)c1C
Asked: Would you mind ranking these compounds by ascending pIC50? Response format: the labels, sorted as the prompt asks.
Given back: V, I, III, IV, II

====

# ASSAY_INFO: Permeability of the compound at pH 7.4 after 18 hrs by PAMPA-BBB assay
MEASUREMENT_KIND: Papp at 18 h (×10⁻⁶ cm/s)

| COMPOUND | ASSAY_RESULT |
| --- | --- |
| C#CCN(C)Cc1ccc(Cc2cn(C)nn2)cc1 | 14.8 |

(I) C#CCN(C)CCc1cn(Cc2ccccc2)nn1
(II) C#CCN(C)Cc1nnn(C)c1CCCC
Asked: Compare the recorded Papp at 18 h of I and II ; state which is larger. Give the label under which the chosen entry appears.
Given back: II

====

# ASSAYED_SYSTEM: Amine oxidase [flavin-containing] B (Homo sapiens, UniProt P27338)
# ASSAY_INFO: Inhibition of human recombinant MAO-B preincubated for 30 mins followed by p-tyramine hydrochloride addition measured after 30 mins by Amplex red fluorescence based spectrophotometry
MEASUREMENT_KIND: IC50 (µM)

| COMPOUND | UNIT_SPEC | IC50 |
| --- | --- | --- |
| C#CCN(C)Cc1nnn(CC)c1C | µM | 105 |
| C#CCN(C)Cc1cccc(Cc2cn(C)nn2)c1 | µM | 65 |
| C#CCN(C)Cc1cn(Cc2ccccc2)nn1 | µM | 129 |
| C#CCN(C)CCc1ccc(Cc2cn(C)nn2)cc1 | µM | 5.2 |
| C#CCN(C)CCc1cn(CCc2ccccc2)nn1 | µM | 173 |

(A) C#CCN(C)Cc1cn(CC)nn1
(B) C#CCN(C)Cc1nnn(C)c1CCCC
Asked: Would you kindly point out which of A and B has the smaller IC50 figure? Give the label under which the chosen entry appears.
Given back: B
(B: 94.7 µM, A: 249 µM)

(I) C#CCN(C)Cc1ccc(Cc2cn(C)nn2)cc1
(II) C#CCN(C)CCc1nnn(-c2ccccc2)c1CC
(III) C#CCN(C)CCc1cn(Cc2ccccc2)nn1
(IV) C#CCN(C)Cc1cn(CCc2ccccc2)nn1
Asked: Place the items in sequence of falling IC50. Response format: the labels, sorted as the prompt asks.
Given back: II, IV, III, I
(II: 213 µM, IV: 11.2 µM, III: 3.5 µM, I: 0.6 µM)

====

# Organism: Homo sapiens
# ASSAY_INFO: Selectivity index, ratio of IC50 for human recombinant MAO-A to IC50 for human recombinant MAO-B
MEASUREMENT_KIND: Ratio IC50

| MOLECULE | Ratio IC50 |
| --- | --- |
| C#CCN(C)Cc1ccc(Cc2cn(C)nn2)cc1 | 0.9 |
| C#CCN(C)Cc1cccc(Cc2cn(C)nn2)c1 | 0.03 |
| C#CCN(C)CCc1cn(CCc2ccccc2)nn1 | 0.3 |
| C#CCN(C)CCc1cn(Cc2ccccc2)nn1 | 27.7 |
| C#CCN(C)Cc1cn(CC)nn1 | 0.5 |
| C#CCN(C)Cc1nnn(CC)c1C | 2.6 |

(A) C#CCN(C)CCc1nnn(-c2ccccc2)c1CCC
(B) C#CCN(C)CCc1ccc(Cc2cn(C)nn2)cc1
Asked: Compare the recorded Ratio IC50 of A and B ; state which is larger. Give the label under which the chosen entry appears.
Given back: B
(B: 5.3, A: 0.2)

====

# ASSAYED_SYSTEM: Amine oxidase [flavin-containing] A (Homo sapiens)
# Sequence (P21397 whole entry): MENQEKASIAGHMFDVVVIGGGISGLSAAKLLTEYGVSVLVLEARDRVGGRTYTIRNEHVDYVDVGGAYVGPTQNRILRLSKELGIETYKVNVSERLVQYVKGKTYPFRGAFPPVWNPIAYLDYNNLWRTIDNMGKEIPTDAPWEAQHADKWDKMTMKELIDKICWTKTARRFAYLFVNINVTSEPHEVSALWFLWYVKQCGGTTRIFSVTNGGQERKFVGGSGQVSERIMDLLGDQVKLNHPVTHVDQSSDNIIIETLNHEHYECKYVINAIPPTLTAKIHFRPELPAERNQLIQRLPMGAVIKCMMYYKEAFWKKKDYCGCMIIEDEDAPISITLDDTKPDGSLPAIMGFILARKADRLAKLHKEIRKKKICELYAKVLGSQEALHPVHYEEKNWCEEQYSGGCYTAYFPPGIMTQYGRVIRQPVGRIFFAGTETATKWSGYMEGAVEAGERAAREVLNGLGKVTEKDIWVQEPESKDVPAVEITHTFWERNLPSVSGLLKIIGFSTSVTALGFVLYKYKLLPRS
# ASSAY_INFO: Inhibition of human recombinant MAO-A preincubated for 30 mins followed by p-tyramine hydrochloride addition measured after 30 mins by Amplex red fluorescence based spectrophotometry
pIC50: −log10 of the molar value.
MEASUREMENT_KIND: pIC50

| SMILES_REPR | ASSAYED_SYSTEM | ASSAY_RESULT |
| --- | --- | --- |
| C#CCN(C)Cc1nnn(C)c1CCCC | Amine oxidase [flavin-containing] A (Homo sapiens) | > 3.52 |
| C#CCN(C)Cc1cn(CCc2ccccc2)nn1 | Amine oxidase [flavin-containing] A (Homo sapiens) | < 3.30 |
| C#CCN(C)Cc1cn(Cc2ccccc2)nn1 | Amine oxidase [flavin-containing] A (Homo sapiens) | < 3.30 |

Now for the molecule whose pIC50 we want.
Looking up "C#CCN(C)CCc1nnn(CC)c1C" , I found its pIC50 recorded as 4.04

====

# ASSAY_INFO: Permeability of the compound at pH 7.4 after 18 hrs by PAMPA-BBB assay
MEASUREMENT_KIND: Papp at 18 h (×10⁻⁶ cm/s)

Known Papp at 18 h results, listed for orientation:
| COMPOUND | UNIT_SPEC | Papp at 18 h |
| --- | --- | --- |
| C#CCN(C)CCc1cn(CCc2ccccc2)nn1 | ×10⁻⁶ cm/s | 14.8 |
| C#CCN(C)CCc1nnn(-c2ccccc2)c1CCC | ×10⁻⁶ cm/s | 17.2 |
| C#CCN(C)CCc1nnn(-c2ccccc2)c1CC | ×10⁻⁶ cm/s | 17 |
| C#CCN(C)Cc1cccc(Cc2cn(C)nn2)c1 | ×10⁻⁶ cm/s | 15.6 |
| C#CCN(C)CCc1nnn(-c2ccccc2)c1CCCC | ×10⁻⁶ cm/s | 21.4 |

(1) C#CCN(C)CCc1nnn(C(C)c2ccccc2)c1C (configuration not stated)
(2) C#CCN(C)CCc1ccc(Cc2cn(C)nn2)cc1
(3) C#CCN(C)Cc1cn(Cc2ccccc2)nn1
(4) C#CCN(C)Cc1cn(CCc2ccccc2)nn1
Asked: Would you mind ranking these compounds by ascending Papp at 18 h? Response format: the labels, sorted as the prompt asks.
Given back: 4, 3, 2, 1

====

# ASSAYED_SYSTEM: Amine oxidase [flavin-containing] B (Homo sapiens)
# Sequence (P27338 whole entry): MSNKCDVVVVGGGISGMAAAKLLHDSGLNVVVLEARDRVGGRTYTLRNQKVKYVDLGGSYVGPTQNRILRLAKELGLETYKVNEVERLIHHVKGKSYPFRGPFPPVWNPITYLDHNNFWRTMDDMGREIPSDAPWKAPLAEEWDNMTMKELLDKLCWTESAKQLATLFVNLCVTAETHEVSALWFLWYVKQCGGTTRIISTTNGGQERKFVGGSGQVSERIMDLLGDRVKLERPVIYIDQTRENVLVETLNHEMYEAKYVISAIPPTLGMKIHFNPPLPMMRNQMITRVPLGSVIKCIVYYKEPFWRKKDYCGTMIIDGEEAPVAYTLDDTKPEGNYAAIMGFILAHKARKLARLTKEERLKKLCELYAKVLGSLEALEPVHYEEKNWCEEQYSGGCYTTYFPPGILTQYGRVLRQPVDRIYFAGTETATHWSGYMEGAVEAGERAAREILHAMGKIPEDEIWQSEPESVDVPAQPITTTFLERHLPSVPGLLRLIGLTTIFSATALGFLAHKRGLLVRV
# ASSAY_INFO: Inhibition of human recombinant MAO-B preincubated for 30 mins followed by p-tyramine hydrochloride addition measured after 30 mins by Amplex red fluorescence based spectrophotometry
pIC50: −log10 of the molar value.
MEASUREMENT_KIND: pIC50

| COMPOUND | ASSAY_RESULT |
| --- | --- |
| C#CCN(C)CCc1nnn(C(C)c2ccccc2)c1C (stereo not given) | 3.87 |
| C#CCN(C)CCc1nnn(-c2ccccc2)c1CCCC | 3.81 |
| C#CCN(C)CCc1nnn(-c2ccccc2)c1CCC | 3.80 |
| C#CCN(C)CCc1cn(CC)nn1 | 3.43 |
| C#CCN(C)CCc1nnn(CC)c1C | 3.62 |
